Target: T1, biotin-MBP-tagged AtHAB1 (residues 172-511), Q9CAJ0
T1 chain: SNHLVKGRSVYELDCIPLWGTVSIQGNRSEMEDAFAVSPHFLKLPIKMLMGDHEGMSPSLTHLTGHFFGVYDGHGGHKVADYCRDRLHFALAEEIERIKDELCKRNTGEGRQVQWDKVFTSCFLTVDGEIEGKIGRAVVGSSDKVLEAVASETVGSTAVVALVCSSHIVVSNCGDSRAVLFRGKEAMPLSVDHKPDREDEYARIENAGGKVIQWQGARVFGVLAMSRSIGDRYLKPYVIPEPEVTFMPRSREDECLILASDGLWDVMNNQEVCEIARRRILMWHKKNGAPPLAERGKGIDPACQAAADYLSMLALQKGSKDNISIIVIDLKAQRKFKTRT
Assay: AlphaScreen
Conditions: chain shown with the change; ABA (100 μM); parent: est. 8400; read off a plot
API: label(entry) gives Condition met if the entry's response (photon counts) is strictly smaller than 6000; on equality or larger values it gives Condition not met.

Example results:
>>> discrete_label("H6-SUMO-tagged FePYR1 F178A (protein) MEQQPAAAEPEVPAGLGLTAAEYAELQPTVEAYHRYAVGPGQCSSLVAQRIEAPAAAVWAIVRRFDCPQVYKHFIRSCALRPDPDAGDELRPGRLREVSVISGLPASTSTERLDLLDDARRAFGFTITGGEHRLANYRSVTTVSELAPAAPAKICTVVLESYVVDVPEGNSEEDTRLAADTVVRLNLQKLKSLAEANATSAAAQATPPPQAE")
"Condition met"
>>> discrete_label("H6-SUMO-tagged FePYR1 G103A (protein) MEQQPAAAEPEVPAGLGLTAAEYAELQPTVEAYHRYAVGPGQCSSLVAQRIEAPAAAVWAIVRRFDCPQVYKHFIRSCALRPDPDAGDELRPGRLREVSVISALPASTSTERLDLLDDARRAFGFTITGGEHRLANYRSVTTVSELAPAAPAKICTVVLESYVVDVPEGNSEEDTRLFADTVVRLNLQKLKSLAEANATSAAAQATPPPQAE")
"Condition met"
>>> discrete_label("H6-SUMO-tagged FePYR1 P105A (protein) MEQQPAAAEPEVPAGLGLTAAEYAELQPTVEAYHRYAVGPGQCSSLVAQRIEAPAAAVWAIVRRFDCPQVYKHFIRSCALRPDPDAGDELRPGRLREVSVISGLAASTSTERLDLLDDARRAFGFTITGGEHRLANYRSVTTVSELAPAAPAKICTVVLESYVVDVPEGNSEEDTRLFADTVVRLNLQKLKSLAEANATSAAAQATPPPQAE")
"Condition met"
>>> discrete_label("H6-SUMO-tagged FePYR1 S102A (protein) MEQQPAAAEPEVPAGLGLTAAEYAELQPTVEAYHRYAVGPGQCSSLVAQRIEAPAAAVWAIVRRFDCPQVYKHFIRSCALRPDPDAGDELRPGRLREVSVIAGLPASTSTERLDLLDDARRAFGFTITGGEHRLANYRSVTTVSELAPAAPAKICTVVLESYVVDVPEGNSEEDTRLFADTVVRLNLQKLKSLAEANATSAAAQATPPPQAE")
"Condition met"
>>> discrete_label("H6-SUMO-tagged FePYR1 E160A (protein) MEQQPAAAEPEVPAGLGLTAAEYAELQPTVEAYHRYAVGPGQCSSLVAQRIEAPAAAVWAIVRRFDCPQVYKHFIRSCALRPDPDAGDELRPGRLREVSVISGLPASTSTERLDLLDDARRAFGFTITGGEHRLANYRSVTTVSELAPAAPAKICTVVLASYVVDVPEGNSEEDTRLFADTVVRLNLQKLKSLAEANATSAAAQATPPPQAE")
"Condition not met"

[Q] Given the entry H6-SUMO-tagged FePYR1 N186A (protein) MEQQPAAAEPEVPAGLGLTAAEYAELQPTVEAYHRYAVGPGQCSSLVAQRIEAPAAAVWAIVRRFDCPQVYKHFIRSCALRPDPDAGDELRPGRLREVSVISGLPASTSTERLDLLDDARRAFGFTITGGEHRLANYRSVTTVSELAPAAPAKICTVVLESYVVDVPEGNSEEDTRLFADTVVRLALQKLKSLAEANATSAAAQATPPPQAE , would its reported response (photon counts) be below 6000?
[A] Condition met
